B1: HEEH_KT_rd6_0790 (parent)
chain: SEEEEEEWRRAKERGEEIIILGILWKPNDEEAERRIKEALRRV

# Variants of: B1
# experiment_notes: folding stability dG (cDNA display proteolysis); higher = more stable
# condition_description: PBS, room temperature
# folding stability dG per entry
Enter your answer as a number in kcal/mol; do not include the unit.

Sample answers from the record:
Exercise: // folding stability dG lookup, key: `I20S`
Solution: 0.816

Exercise: // folding stability dG lookup, key: `I36K`
Solution: 0.876

Exercise: // folding stability dG lookup, key: `E33N`
Solution: 1.61

New cases:
Exercise: // folding stability dG lookup, key: `R9F`
Solution: 1.85

Exercise: // folding stability dG lookup, key: `D29E`
Solution: 1.06

Exercise: // folding stability dG lookup, key: `I18L`
Solution: 1.39

Exercise: // folding stability dG lookup, key: `L24H`
Solution: 1.75

Exercise: // folding stability dG lookup, key: `S1C`
Solution: 2.82

Exercise: // folding stability dG lookup, key: `V43Y`
Solution: 2.38

Exercise: // folding stability dG lookup, key: `E2G`
Solution: 2.34

Exercise: // folding stability dG lookup, key: `N28R`
Solution: 1.71

Exercise: // folding stability dG lookup, key: `A32M`
Solution: 1.26

Exercise: // folding stability dG lookup, key: `R9L`
Solution: 2.11

Exercise: // folding stability dG lookup, key: `N28A`
Solution: 1.67

Exercise: // folding stability dG lookup, key: `I36S`
Solution: 0.815

Exercise: // folding stability dG lookup, key: `L21W`
Solution: 1.26

Exercise: // folding stability dG lookup, key: `R41G`
Solution: 1.74

Provenance of the data: the MegaScale stability set (Tsuboyama et al. 2023)
